- Study Target: HDAC4 (Homo sapiens)
- Sequence (P56524 whole entry, species assumed): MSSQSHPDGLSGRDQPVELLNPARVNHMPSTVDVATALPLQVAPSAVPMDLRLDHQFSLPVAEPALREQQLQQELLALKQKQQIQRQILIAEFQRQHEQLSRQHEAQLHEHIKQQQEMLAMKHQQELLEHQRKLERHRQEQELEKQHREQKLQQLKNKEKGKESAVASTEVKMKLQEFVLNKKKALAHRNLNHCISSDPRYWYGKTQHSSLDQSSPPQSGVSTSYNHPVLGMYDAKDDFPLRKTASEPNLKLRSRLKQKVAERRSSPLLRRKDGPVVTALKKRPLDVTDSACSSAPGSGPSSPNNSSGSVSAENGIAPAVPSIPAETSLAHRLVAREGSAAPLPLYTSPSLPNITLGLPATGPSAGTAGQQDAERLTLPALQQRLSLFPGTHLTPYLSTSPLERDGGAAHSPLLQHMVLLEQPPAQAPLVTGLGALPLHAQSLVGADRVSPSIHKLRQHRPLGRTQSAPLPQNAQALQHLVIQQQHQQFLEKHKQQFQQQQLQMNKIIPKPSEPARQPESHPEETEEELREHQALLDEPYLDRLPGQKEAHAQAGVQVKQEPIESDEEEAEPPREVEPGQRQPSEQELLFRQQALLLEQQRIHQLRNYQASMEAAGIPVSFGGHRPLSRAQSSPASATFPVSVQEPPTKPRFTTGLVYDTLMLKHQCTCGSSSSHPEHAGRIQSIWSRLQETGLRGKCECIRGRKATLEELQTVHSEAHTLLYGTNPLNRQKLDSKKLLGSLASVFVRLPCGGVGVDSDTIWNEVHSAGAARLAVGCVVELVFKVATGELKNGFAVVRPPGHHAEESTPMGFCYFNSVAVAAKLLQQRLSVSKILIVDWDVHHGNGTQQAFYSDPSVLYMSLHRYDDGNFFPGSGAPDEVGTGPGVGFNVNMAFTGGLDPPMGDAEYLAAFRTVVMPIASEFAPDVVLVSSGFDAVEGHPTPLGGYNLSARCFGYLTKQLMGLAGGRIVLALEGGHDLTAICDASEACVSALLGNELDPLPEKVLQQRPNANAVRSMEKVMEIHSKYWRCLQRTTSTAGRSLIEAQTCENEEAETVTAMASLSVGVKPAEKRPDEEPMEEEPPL
Parameter: IC50

compound_smiles=Br.CN(C)C(SCCCCCCn1cnc2c(-c3cc(Br)c(Br)[nH]3)nccc21)=[N+](C)C.[Cl-] parameter=IC50 measurement="> 200 µM"

----------
- Study Target: SIRT3 (Homo sapiens, UniProt Q9NTG7)
- Sequence (Q9NTG7 whole entry, species assumed): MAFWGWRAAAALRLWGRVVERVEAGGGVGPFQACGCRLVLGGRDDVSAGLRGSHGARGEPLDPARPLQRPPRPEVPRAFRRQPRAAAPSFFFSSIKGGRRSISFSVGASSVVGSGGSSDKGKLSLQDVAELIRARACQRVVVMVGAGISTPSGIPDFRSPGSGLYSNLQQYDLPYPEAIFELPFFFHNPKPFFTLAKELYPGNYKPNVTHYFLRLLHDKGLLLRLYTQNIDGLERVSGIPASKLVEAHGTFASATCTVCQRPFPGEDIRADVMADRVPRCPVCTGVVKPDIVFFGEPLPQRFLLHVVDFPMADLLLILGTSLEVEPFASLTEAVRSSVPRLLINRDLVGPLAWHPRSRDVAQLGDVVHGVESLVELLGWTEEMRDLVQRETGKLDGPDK
pIC50: −log10 of the molar value.
Parameter: pIC50

compound_smiles=Br.CN(C)C(SCCCCCCn1cnc2c(-c3cc(Br)c(Br)[nH]3)nccc21)=[N+](C)C.[Cl-] parameter=pIC50 measurement="< 3.70"

----------
- Study Target: UniProtKB Q8N6T7
- Protocol Notes: Fluor-De-Lys (FDL) SIRT6 deacetylation assay
- Assay type: biochemical
- Parameters: The human full-length SIRT6 gene was inserted into the prokaryotic expression vector (pET-28a (+)); inferred from the pET-28a(+) vector, Ni-NTA purification and Ni-NTA biosensor loading); made in house; host or cells: Escherichia coli BL21 (DE3)
- Settings: fixed concentration of 25 μM, RHKK-Ac-AMC, NI = no inhibition
- Experimental: The human full-length SIRT6 gene was inserted into the prokaryotic expression vector (pET-28a (+)). […] Bacterial liquid was harvested at 12,000 rpm at 4 °C for 20 min, and then re-suspended in Lysis buffer (20 mmol/L Hepes pH 7.5, 20 mmol/L imidazole, 5% Glycerol, 500 mmol/L NaCl). […] The purified SIRT6 protein was analyzed by SDS-PAGE. […]
Parameter: Inhibition rate (%)

compound="Brc1cc(-c2nccc3[nH]cnc23)[nH]c1Br.O=C(O)C(F)(F)F [Compound 2a]" parameter="Inhibition rate (%)" unit=% measurement=4.1
compound="Br.CN(C)C(SCCCCCCn1cnc2c(-c3cc(Br)c(Br)[nH]3)nccc21)=[N+](C)C.[Cl-] [Compound 8a]" parameter="Inhibition rate (%)" unit=% measurement=75.6
compound="Brc1cc(-c2nccc3c2ncn3CCCCCCN2CCOCC2)n(CCCCCCN2CCOCC2)c1Br [Compound 11b]" parameter="Inhibition rate (%)" unit=% measurement=23.8
compound="O=C(O)C(F)(F)F.O=C1c2ccccc2C(=O)N1CCCCCCn1cnc2c(-c3cc(Br)c(Br)[nH]3)nccc21 [Compound 10c]" parameter="Inhibition rate (%)" unit=% measurement=6.4
compound="BrCCCCCCn1cnc2c(-c3cc(Br)c(Br)[nH]3)nccc21.O=C(O)C(F)(F)F [Compound 4a]" parameter="Inhibition rate (%)" unit=% measurement=5.3
compound="Brc1cc(-c2nccc3c2ncn3CCCCCCN2CCCCC2)[nH]c1Br.O=C(O)C(F)(F)F [Compound 10d]" parameter="Inhibition rate (%)" unit=% measurement=16.7

----------
- Study Target: HDAC5 (Homo sapiens, UniProt Q9UQL6)
- Sequence (Q9UQL6 whole entry, species assumed): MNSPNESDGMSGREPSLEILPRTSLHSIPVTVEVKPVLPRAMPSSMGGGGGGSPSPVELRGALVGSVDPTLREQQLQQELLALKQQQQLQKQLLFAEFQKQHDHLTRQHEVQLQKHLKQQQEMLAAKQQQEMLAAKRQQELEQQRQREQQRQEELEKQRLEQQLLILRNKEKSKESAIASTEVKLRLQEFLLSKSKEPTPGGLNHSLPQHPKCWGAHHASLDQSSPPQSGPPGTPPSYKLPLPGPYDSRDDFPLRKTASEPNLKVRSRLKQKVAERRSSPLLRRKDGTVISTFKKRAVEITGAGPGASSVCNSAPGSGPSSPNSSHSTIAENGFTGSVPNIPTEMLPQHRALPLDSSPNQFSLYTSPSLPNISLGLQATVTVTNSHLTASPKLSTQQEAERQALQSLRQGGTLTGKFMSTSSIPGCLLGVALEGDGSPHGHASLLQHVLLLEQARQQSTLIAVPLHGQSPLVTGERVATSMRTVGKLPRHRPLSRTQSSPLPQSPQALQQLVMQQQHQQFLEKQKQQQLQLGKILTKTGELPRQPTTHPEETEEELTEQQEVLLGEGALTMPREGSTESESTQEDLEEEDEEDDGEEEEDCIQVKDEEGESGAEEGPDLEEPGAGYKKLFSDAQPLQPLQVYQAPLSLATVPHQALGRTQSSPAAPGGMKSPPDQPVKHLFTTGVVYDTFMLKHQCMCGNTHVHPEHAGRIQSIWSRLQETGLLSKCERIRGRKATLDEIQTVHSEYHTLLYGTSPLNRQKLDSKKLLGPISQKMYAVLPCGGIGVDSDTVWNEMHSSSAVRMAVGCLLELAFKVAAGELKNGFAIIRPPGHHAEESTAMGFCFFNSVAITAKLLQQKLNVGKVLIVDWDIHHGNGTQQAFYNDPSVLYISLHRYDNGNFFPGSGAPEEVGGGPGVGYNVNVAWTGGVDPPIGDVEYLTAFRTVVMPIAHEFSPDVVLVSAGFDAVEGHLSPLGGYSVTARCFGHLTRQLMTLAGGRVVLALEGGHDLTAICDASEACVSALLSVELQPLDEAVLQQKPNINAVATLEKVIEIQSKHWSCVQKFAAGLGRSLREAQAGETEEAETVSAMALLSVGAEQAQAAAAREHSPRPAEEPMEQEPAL
pIC50: −log10 of the molar value.
Parameter: pIC50

compound_smiles=Br.CN(C)C(SCCCCCCn1cnc2c(-c3cc(Br)c(Br)[nH]3)nccc21)=[N+](C)C.[Cl-] measurement="< 3.70"

----------
- Study Target: HDAC8 (Homo sapiens)
- Sequence (Q9BY41 whole entry, species assumed): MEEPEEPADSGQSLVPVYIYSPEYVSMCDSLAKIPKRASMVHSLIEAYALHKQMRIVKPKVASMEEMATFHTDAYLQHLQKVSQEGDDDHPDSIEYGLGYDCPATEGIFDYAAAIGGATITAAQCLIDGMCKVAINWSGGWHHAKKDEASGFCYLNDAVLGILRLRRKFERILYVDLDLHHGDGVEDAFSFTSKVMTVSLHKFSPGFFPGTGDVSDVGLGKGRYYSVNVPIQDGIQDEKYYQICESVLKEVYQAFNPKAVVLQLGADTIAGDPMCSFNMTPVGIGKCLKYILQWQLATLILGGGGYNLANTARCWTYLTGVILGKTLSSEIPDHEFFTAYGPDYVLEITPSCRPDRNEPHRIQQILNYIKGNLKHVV
- Protocol Notes: Deacetylation activity selectivity, HDAC8
- Assay type: biochemical
- Description: Based on the above results, 8a was further investigated in this study. […] To further evaluate the selectivity of 8a for SIRT6, we examined the effect of 8a on the deacetylation activity of other HDAC family members, including HDAC1-HDAC11, SIRT1-SIRT3 and SIRT5. […] Furthermore, to confirm binding of 8a to SIRT6 in cells, we carried out the cellular thermal shift assay (CETSA). […]
Parameter: IC50 (µM)

molecule="Br.CN(C)C(SCCCCCCn1cnc2c(-c3cc(Br)c(Br)[nH]3)nccc21)=[N+](C)C.[Cl-] [Compound 8a]" measurement=102

----------
- Study Target: SIRT1 (Homo sapiens, UniProt Q96EB6)
- Sequence (Q96EB6 whole entry, species assumed): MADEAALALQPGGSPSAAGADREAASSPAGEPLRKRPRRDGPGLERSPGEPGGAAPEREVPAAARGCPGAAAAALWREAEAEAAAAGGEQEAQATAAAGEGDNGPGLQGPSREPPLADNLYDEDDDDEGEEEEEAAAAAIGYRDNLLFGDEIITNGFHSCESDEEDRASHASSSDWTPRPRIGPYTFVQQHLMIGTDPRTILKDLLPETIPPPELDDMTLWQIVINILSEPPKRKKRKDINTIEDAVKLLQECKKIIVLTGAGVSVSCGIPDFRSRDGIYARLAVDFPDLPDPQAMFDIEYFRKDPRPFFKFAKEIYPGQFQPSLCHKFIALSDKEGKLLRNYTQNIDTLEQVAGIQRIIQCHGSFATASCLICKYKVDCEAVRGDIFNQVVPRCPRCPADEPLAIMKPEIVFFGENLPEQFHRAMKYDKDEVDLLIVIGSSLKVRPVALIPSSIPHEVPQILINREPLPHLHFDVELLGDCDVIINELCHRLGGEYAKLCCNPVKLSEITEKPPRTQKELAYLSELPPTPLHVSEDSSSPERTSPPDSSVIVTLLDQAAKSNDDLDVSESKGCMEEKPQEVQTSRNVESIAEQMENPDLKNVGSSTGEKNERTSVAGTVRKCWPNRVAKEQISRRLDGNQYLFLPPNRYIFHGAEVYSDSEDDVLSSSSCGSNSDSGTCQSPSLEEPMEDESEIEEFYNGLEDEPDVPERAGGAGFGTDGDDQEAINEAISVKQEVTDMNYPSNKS
pIC50: −log10 of the molar value.
Parameter: pIC50

compound_smiles=Br.CN(C)C(SCCCCCCn1cnc2c(-c3cc(Br)c(Br)[nH]3)nccc21)=[N+](C)C.[Cl-] study_target="SIRT1 (Homo sapiens, UniProt Q96EB6)" parameter=pIC50 measurement=4.09

----------
- Study Target: UniProt O15379
- Sequence (O15379 whole entry, species assumed): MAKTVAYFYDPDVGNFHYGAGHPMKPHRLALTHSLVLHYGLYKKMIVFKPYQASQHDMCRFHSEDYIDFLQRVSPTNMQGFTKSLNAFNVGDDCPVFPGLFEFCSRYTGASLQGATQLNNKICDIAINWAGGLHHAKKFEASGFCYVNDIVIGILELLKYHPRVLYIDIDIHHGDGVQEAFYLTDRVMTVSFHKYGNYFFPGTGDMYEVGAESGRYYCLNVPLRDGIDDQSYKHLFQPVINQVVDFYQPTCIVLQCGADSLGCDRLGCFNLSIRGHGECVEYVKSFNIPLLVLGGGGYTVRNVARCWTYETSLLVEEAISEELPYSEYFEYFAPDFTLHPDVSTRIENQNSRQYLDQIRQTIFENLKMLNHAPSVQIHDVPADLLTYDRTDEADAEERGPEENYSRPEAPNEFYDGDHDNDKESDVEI
- Sequence (Q9Y618 395-489 partner limits assumed, species assumed): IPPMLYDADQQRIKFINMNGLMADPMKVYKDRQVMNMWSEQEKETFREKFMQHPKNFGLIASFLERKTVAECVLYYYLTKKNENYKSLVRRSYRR
Parameter: IC50 (µM)

compound="Br.CN(C)C(SCCCCCCn1cnc2c(-c3cc(Br)c(Br)[nH]3)nccc21)=[N+](C)C.[Cl-] [Compound 8a]" study_target="UniProt O15379" measurement=112

----------
- Study Target: SIRT6 (Homo sapiens)
- Sequence (Q8N6T7 whole entry): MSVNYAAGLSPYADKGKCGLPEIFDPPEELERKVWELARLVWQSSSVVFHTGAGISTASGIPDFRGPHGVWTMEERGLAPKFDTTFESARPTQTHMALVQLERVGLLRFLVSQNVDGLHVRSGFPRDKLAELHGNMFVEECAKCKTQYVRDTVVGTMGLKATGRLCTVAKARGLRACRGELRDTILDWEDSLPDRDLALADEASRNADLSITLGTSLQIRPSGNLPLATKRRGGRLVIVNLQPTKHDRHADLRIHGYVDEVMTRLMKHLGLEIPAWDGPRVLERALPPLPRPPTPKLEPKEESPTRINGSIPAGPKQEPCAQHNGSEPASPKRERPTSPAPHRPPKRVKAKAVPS
- Protocol Notes: Fluor-De-Lys (FDL) SIRT6 deacetylation assay
- Assay type: biochemical
- Design: The human full-length SIRT6 gene was inserted into the prokaryotic expression vector (pET-28a (+)); inferred from the pET-28a(+) vector, Ni-NTA purification and Ni-NTA biosensor loading); made in house; host or cells: Escherichia coli BL21 (DE3)
Parameter: IC50 (µM)

compound_smiles=Br.CN(C)C(SCCCCCCn1cnc2c(-c3cc(Br)c(Br)[nH]3)nccc21)=[N+](C)C.[Cl-] unit=µM measurement=7.46
